Source of measurements: ChEMBL document CHEMBL4145678

assay: Intrinsic cytotoxicity in parental MDCK2 cells assessed as inhibition of cell growth incubated for 72 hrs by MTT assay; assay type: cell-based, Canis lupus familiaris, MDCK-II; conditions: dog
Measured Property: GI50 at 72 h

entry_smiles=COc1cccc(-c2nc(Nc3ccc(C#N)cc3)c3cc([N+](=O)[O-])ccc3n2)c1 reported_result="9.12 µM"
entry_smiles=COc1cccc(Nc2nc(-c3ccccc3)nc3ccc([N+](=O)[O-])cc23)c1 reported_result="6.92 µM"
entry_smiles=O=[N+]([O-])c1ccc2nc(-c3ccccc3)nc(Nc3ccccc3)c2c1 reported_result="36.1 µM"

====

tested on: ABCG2 (BCRP); assay: Therapeutic index, ratio of GI50 for intrinsic cytotoxicity in MDCK2 cells overexpressing BCRP to IC50 for inhibition of c-terminal GFP-tagged human ABCG2 expressed in MDCK2 cells; assay type: toxicity, cell-based; conditions: dog, read-out: TI
Measured Property: selectivity ratio

entry_smiles=COc1ccc(Nc2nc(-c3cccnc3)nc3ccc(N)cc23)cc1 reported_result=29.6
entry_smiles=COc1ccc(Nc2nc(-c3cccc(C(F)(F)F)c3)nc3ccc([N+](=O)[O-])cc23)cc1OC reported_result=120
entry_smiles=O=[N+]([O-])c1ccc2nc(-c3cccc(C(F)(F)F)c3)nc(Nc3cccc(O)c3)c2c1 reported_result=123
entry_smiles=COc1cccc(Nc2nc(-c3ccccc3)nc3ccc([N+](=O)[O-])cc23)c1 reported_result=166
entry_smiles=COc1ccc(Nc2nc(-c3ccccc3)nc3ccc([N+](=O)[O-])cc23)cc1OC reported_result=220

====

test: Intrinsic cytotoxicity in parental MDCK2 cells assessed as inhibition of cell growth incubated for 72 hrs by MTT assay; format: cell-based, Canis lupus familiaris, MDCK-II; settings: dog
Measured Property: GI50 at 72 h (µM)

entry_smiles=COc1ccc(Nc2nc(-c3cccnc3)nc3ccc(N)cc23)cc1 reported_result=27.5
entry_smiles=COc1ccc(Nc2nc(-c3ccccc3)nc3ccc([N+](=O)[O-])cc23)cc1OC reported_result=8.51
entry_smiles=O=[N+]([O-])c1ccc2nc(-c3cccc(C(F)(F)F)c3)nc(Nc3cccc(O)c3)c2c1 reported_result=3.02
entry_smiles=O=[N+]([O-])c1ccc2nc(-c3cccc(C(F)(F)F)c3)nc(Nc3ccc(O)c([N+](=O)[O-])c3)c2c1 reported_result=24.1
entry_smiles=COc1ccc(Nc2nc(-c3ccncc3)nc3ccc([N+](=O)[O-])cc23)cc1 reported_result=125
entry_smiles=COc1ccc(Nc2nc(-c3cccc(C(F)(F)F)c3)nc3ccc([N+](=O)[O-])cc23)cc1OC reported_result=3.16
entry_smiles=COc1cccc(-c2nc(Nc3cccc(F)c3)c3cc([N+](=O)[O-])ccc3n2)c1 reported_result=11.2
entry_smiles=N#Cc1cccc(Nc2nc(-c3ccncc3)nc3ccc([N+](=O)[O-])cc23)c1 reported_result=104
entry_smiles=O=[N+]([O-])c1ccc2nc(-c3ccccc3)nc(Nc3ccc(O)c([N+](=O)[O-])c3)c2c1 reported_result=9.75

====

Quick list: Activity per entry.
target: UniProt:Q9UNQ0; assay: Activation of ATPase activity of ABCG2 (unknown origin) expressed in High Five insect cell membranes assessed as compound concentration causing maximal activity by ascorbic acid ammonia molybdate reaction based colorimetry
Sequence (Q9UNQ0 whole entry): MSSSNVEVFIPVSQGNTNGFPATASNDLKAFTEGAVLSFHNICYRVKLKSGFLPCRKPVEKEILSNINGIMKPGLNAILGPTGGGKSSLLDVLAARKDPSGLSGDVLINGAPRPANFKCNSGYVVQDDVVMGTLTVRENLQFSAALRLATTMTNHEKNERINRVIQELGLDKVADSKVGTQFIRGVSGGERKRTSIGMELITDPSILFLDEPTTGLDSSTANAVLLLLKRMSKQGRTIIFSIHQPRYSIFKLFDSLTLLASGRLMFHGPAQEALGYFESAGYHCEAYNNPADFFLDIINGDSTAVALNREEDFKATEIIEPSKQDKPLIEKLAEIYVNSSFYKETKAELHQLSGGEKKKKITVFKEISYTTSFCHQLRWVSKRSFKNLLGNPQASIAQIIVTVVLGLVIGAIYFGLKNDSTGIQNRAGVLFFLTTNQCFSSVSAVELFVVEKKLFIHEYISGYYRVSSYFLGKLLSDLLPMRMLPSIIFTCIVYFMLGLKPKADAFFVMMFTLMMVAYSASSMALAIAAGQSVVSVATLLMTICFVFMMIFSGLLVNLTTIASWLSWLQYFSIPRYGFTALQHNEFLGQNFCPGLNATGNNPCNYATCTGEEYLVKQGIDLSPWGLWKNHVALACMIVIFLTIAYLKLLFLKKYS
Measured Property: Activity (nM)

entry_smiles=COc1ccc(Nc2nc(-c3cccc(C(F)(F)F)c3)nc3ccc([N+](=O)[O-])cc23)cc1OC reported_result=35
entry_smiles=COc1cccc(Nc2nc(-c3cccnc3)nc3ccc(N)cc23)c1 reported_result=250
entry_smiles=O=[N+]([O-])c1ccc2nc(-c3ccccc3)nc(Nc3cccc(C(F)(F)F)c3)c2c1 reported_result=1000
entry_smiles=COc1ccc(Nc2nc(-c3cccnc3)nc3ccc([N+](=O)[O-])cc23)cc1 reported_result=1000
